# credit: patent US20210253725A1

- TESTED SYSTEM: T1, CD27 expressed on the cell surface (HT1080_CD27 cells) (human, UniProt P26842 20-260); note: test concentration or dose not given here
- T1 sequence (looked up): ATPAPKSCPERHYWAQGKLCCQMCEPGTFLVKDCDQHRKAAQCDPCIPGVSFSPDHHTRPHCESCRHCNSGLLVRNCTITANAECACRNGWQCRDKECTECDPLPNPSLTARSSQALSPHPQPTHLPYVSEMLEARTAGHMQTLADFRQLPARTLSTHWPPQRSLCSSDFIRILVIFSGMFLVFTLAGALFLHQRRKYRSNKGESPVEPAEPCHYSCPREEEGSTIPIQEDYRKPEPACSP
- EXPERIMENT NOTES: cell-based or functional assay
Below, each entry is listed with its recorded IL-8, cross-linked by F(ab')2 fragment [abs. corr.].
Kindly answer with a numeric value in abs. corr., unit omitted.

{"BINDER": "P018.S.09.A.C03 (antibody, V domains shown, V regions on human Ig constant parts; also called AB27_148) VH: QSVEESGGRLVTPGTPLTLTCTVSGFSLSSYGMIWVRQAPGKGLEWIGWISSNDNKYYARWAKGRFTISKTSTTVDLKMTSLTTEDTATYFCVRNGVYNTGNYFDLWGQGTLVTVSS VL: AQVLTQTPSSVSAAVGGTVTINCQASQSLYNNKNLAWYQQKPGQPPKFLIYTASSLASGVSSRFKGSGSGTQFTLTISDVQSDDAATYYCQGEFDCDSDDCFAFGGGTEVVVK", "VALUE UNIT": "abs. corr.", "DATA VALUE": 2.25}

*Q* // IL-8, cross-linked by F(ab')2 fragment [abs. corr.] lookup, key: P018.S.04.A.E04 (antibody, V domains shown, V regions on human Ig constant parts; also called AB27_75) VH: QSVEESGGRLVTPGTPLTLTCTVSGFSLSTYAMNWIRQAPGKGLEWIGTITTGGSTFFASWAKGRFTISKTSTTVDLKITSPTTEDTATYFCARGGDTGYGFSYFDLWGQGTLVTVSS VL: AVVLTQTPASVSEPVGGTVTIKCQASENIYSSLAWYQQKPGQPPKLLIYDASTLASGVPSRFKGSGSGTEYTLTISGVQSDDAATYYCQQGYSTSNLVNPFGGGTELVVN
*A* 1.34

*Q* Same thing, different binder: P018.S.03.A.H02 (antibody, V domains shown, V regions on human Ig constant parts; also called AB27_60) VH: QSLEESGGRLMTPGGSLTLTCTVSGFSLSDYNMQWVRQAPGEGLEWIGIISLGGTTDYANWVKGRFTISKTSTTVDLKMTSLTASDTATYFCARDPAGGNWAELDLWGQGTLVTVSS VL: DIVMTQTPASVSEPVGGTVTIKCQASQSISSWLSWFQQKPGQPPKLLIYDASTLASGVPSRFKGSGSGTEFTLTISDLESADAATYYCQQGSTISNVDNAFGGGTEVVVK
*A* 1.07

*Q* Same thing, different binder: P018.S.06.A.A03 (antibody, V domains shown, V regions on human Ig constant parts; also called AB27_96) VH: QSVEESGGRLVTPGTPLTLTCTVSGFSLSSNAMTWVRQAPGKGLEWIGFINTGSSTYYASWAKGRFTISKTSTTVDLKITSPTTEDTATYFCARDADDSRGYYWGLWGQGTLVTVSS VL: AYDMTQTPASVPAAVGGTVTIKCQASEDIYSLLAWYQQKPGQPPKLLIYDASDLASGVPSRFRGSGSGTDYTLTISGVESADAATYYCQQGYTTYTTVDNIFGGGTEVVVK
*A* 1.86

*Q* Same thing, different binder: P018.S.04.A.C02 (antibody, V domains shown, V regions on human Ig constant parts; also called AB27_69) VH: QEQLVESGGDLVKPEGSLTLTCTASGFSFSSSYYMSWVRQAPGKGLEWIACIDTVDNYTYYASWAKGRFTISKTSSTTVSLQMTSLTAADTATYFCARERIAYNTDYFNLWGPGTLVTVSS VL: AQVLTQTPSPVSAAVGGTVTISCQSSQSLYNYNNLAWYQQKPGQPPKLLIYSVSNLASGVPSRFGGGGSGTQFTLTISDLQSADAATYYCQGYYSGAVYTFGGGTEVVVK
*A* 1.53

*Q* Same thing, different binder: P018.S.02.A.D04 (antibody, V domains shown, V regions on human Ig constant parts; also called AB27_33) VH: QEQLVESGGGLVQPEGSLTLTCTASALSFYSAWICWVRQAPGKGLKWIACIYAGGSRSTYYATWATGRFTISEASSTTVTLQMTSLTAADTATYFCARSLSADTYWNLWGPGTLVTVSS VL: DVVMTQTPASVEAAVGGTVTIKCQASESISSWLAWYQQKPGQPPKLLIYRASTLESGVPSRFKGSGSGTEFTLTISDLESADAATYYCQNNGGGTSGYTFGGGTEVVVK
*A* 1.37

*Q* Same thing, different binder: P018.S.03.A.A02 (antibody, V domains shown, V regions on human Ig constant parts; also called AB27_41) VH: QSVEESGGRLVTPGTPLTLTCTVSGFSLSSYDMTWVRQAPGEGLEWIGYINTDTTTYYASWAKGRFTISRTSTTVDLEITSPTTEDTATYFCARGNDPIYIDLWGQGTLVTVSS VL: AAVLTQTPSPVSAAVGGTVSISCQSSKSVINNNWLGWYQQKPGQPPKLLISYASTLASGVPSRFSGSGSGTQFTLTISDVQSDDAATYYCAGAYSPDSENAFGGGTEVVLK
*A* 2.2

*Q* Same thing, different binder: P018.S.10.A.F05 (antibody, V domains shown, V regions on human Ig constant parts; also called AB27_181) VH: QSVEESGGRLVTPGTPLTLTCTVSGFSLSGYHMCWVRQAPGKGLQYIGIIGSNGVTYYASWAKSRSTITRNTNENTVTLKMTSLTTEDTATYFCARSSGWGARFNLWGQGTLVTVSS VL: AQVLTQTPASVSAAVGGTVTINCQASQSVYNDNELSWYQQKPGQPPKLLIYKASTLTSGVPLRFSGSGSGTQFTLTISDVQSDDAATYYCLGGGSTPSDSTFGGGTEVVVK
*A* 1.34
